Tested on: Fibroblast
Experiment: Multiplex assay against human fibroblast
Assay type: toxicity, cell-based
Conditions: 48 h, 1 µM, compound concentration 1 uM, replicate 1
Below: a set of entries, each annotated with reported Population Normal (%).
Write the number in % without appending the unit.

Examples with their reported Population Normal (%) follow.
compound	Population Normal (%)
Cl.Clc1ccc2nsnc2c1NC1=NCCN1 [TIZANIDINE HYDROCHLORIDE]	97
CN1CCN(c2nc3cc(C(F)(F)F)ccc3n3cccc23)CC1.O=C(O)/C=C\C(=O)O.O=C(O)/C=C\C(=O)O	97
O=C1COc2nccc(-c3ccccc3F)c2CN1Cc1cc(C(F)(F)F)cc(C(F)(F)F)c1	94
CC(=O)NCCc1c(Cc2ccccc2)[nH]c2ccccc12	94
Cc1ccccc1C(=O)Nc1ccc(C(=O)N2CCCC(N(C)C)c3ccccc32)cc1.Cl (centres undefined)	96

Lookup: Tell me measured Population Normal (%) for `CN(C)c1ccnc2sc3c(=O)n(N4CCCCCC4)cnc3c12` please.
Found: 97

Lookup: Tell me measured Population Normal (%) for `N[C@@]1(C(=O)O)CO[C@H]2[C@H](C(=O)O)[C@H]21` please.
Found: 96

Lookup: Tell me measured Population Normal (%) for `COc1cc(C(=O)N(CCCc2ccccc2)Cc2ccc(CC(=O)O)cc2)cc(OC)c1C` please.
Found: 98

Lookup: Tell me measured Population Normal (%) for CCCN1CCC[C@@H]2Cc3n[nH]cc3C[C@H]21.Cl [QUINPIROLE HYDROCHLORIDE] please.
Found: 96

----------
Below: a set of entries, each annotated with reported Population Healthy Nuclei (%).
Tested on: HEK-293T
Experiment: Multiplex assay against HEK293T
Assay type: toxicity, cell-based
Details: human, 12 h, 1 µM, compound concentration 1 uM, replicate 2
Write the number in % without appending the unit.

Examples with their reported Population Healthy Nuclei (%) follow.
molecule	reportedProperty	unitsSymbol	quantitativeResult
Cc1ccccc1C(=O)Nc1ccc(C(=O)N2CCCC(N(C)C)c3ccccc32)cc1.Cl (stereo unspecified)	Population Healthy Nuclei (%)	%	79
O=C(NCCO)c1cccc(-c2cc(Nc3ccc(OC(F)(F)F)cc3)ncn2)c1	Population Healthy Nuclei (%)	%	77
CCCC(CCC)C(=O)O [VALPROIC ACID]	Population Healthy Nuclei (%)	%	79
CCCn1c(=O)c2[nH]c(C3CCCC3)nc2n(CCC)c1=O	Population Healthy Nuclei (%)	%	81
O=S(=O)(c1ccccc1)c1cnc2c(N3CCNCC3)cccc2c1 [INTEPIRDINE]	Population Healthy Nuclei (%)	%	74

Lookup: Tell me measured Population Healthy Nuclei (%) for O=C(O)Cc1ccccc1Nc1c(Cl)cccc1Cl [DICLOFENAC] please.
Found: 79

Lookup: Tell me measured Population Healthy Nuclei (%) for `COc1c(C)cc(NC(=O)c2nn(Cc3ccc(F)cc3)c3c2CN(C(=O)c2ccc[nH]2)C[C@]3(C)C(N)=O)cc1C` please.
Found: 75

Lookup: Tell me measured Population Healthy Nuclei (%) for CC1(COc2ccc3c(c2)ncn3-c2ccc3cccc(N4CCC(N)CC4)c3n2)COC1 [CRENOLANIB] please.
Found: 80

----------
Below: a set of entries, each annotated with reported Population Mitotic Cells (%).
Tested on: HEK-293T
Experiment: Multiplex assay against HEK293T
Type: toxicity, cell-based
Details: human, 12 h, 1 µM, compound concentration 1 uM, replicate 2

molecule	Population Mitotic Cells (%)
CN1CCN(c2nc3cc(C(F)(F)F)ccc3n3cccc23)CC1.O=C(O)/C=C\C(=O)O.O=C(O)/C=C\C(=O)O	46%
COc1cc(NC(=O)CCN2CCC(OC(=O)Nc3ccccc3-c3ccccc3)CC2)c(Cl)cc1CNC[C@H](O)c1ccc(O)c2[nH]c(=O)ccc12	52%
CC(=O)NCCc1c(Cc2ccccc2)[nH]c2ccccc12	56%
CSCC[C@H](NC=O)C(=O)N[C@@H](CC(C)C)C(=O)N[C@@H](Cc1ccccc1)C(=O)O	71%
O=C(NCCO)c1cccc(-c2cc(Nc3ccc(OC(F)(F)F)cc3)ncn2)c1	59%

Lookup: Look up and report Population Mitotic Cells (%), with HEK-293T as system, for `C[C@@H]1C[C@H]2[C@@H]3CCC4=CC(=O)C=C[C@]4(C)[C@@]3(F)[C@@H](O)C[C@]2(C)[C@@]1(O)C(=O)CO`
Found: 46%

Lookup: Look up and report Population Mitotic Cells (%), with HEK-293T as system, for COc1ccc2c(c1)C(C(=O)N(Cc1ccc(N(C)C)cc1)c1ccc(C(C)C)cc1)CCC2.Cl (configuration not stated)
Found: 56%

Lookup: Look up and report Population Mitotic Cells (%), with HEK-293T as system, for `CC(C)(C)c1ccc(S(=O)(=O)Nc2ccc(Cl)cc2C(=O)c2cc[n+]([O-])cc2)cc1`
Found: 47%

Lookup: Look up and report Population Mitotic Cells (%), with HEK-293T as system, for CCCN1CCC[C@@H]2Cc3n[nH]cc3C[C@H]21.Cl [QUINPIROLE HYDROCHLORIDE]
Found: 36%

Lookup: Look up and report Population Mitotic Cells (%), with HEK-293T as system, for `COc1c(C)cc(NC(=O)c2nn(Cc3ccc(F)cc3)c3c2CN(C(=O)c2ccc[nH]2)C[C@]3(C)C(N)=O)cc1C`
Found: 61%

Lookup: Look up and report Population Mitotic Cells (%), with HEK-293T as system, for `Cc1ccc(F)cc1C(=O)Nc1ccc(C(=O)N2Cc3cccn3Cc3ccccc32)c(Cl)c1`
Found: 60%

Lookup: Look up and report Population Mitotic Cells (%), with HEK-293T as system, for `Oc1c(CN2CCN(c3ccccn3)CC2)cc(Cl)c2cccnc12`
Found: 54%

Lookup: Look up and report Population Mitotic Cells (%), with HEK-293T as system, for `CN(C)CCCc1cc(C(=O)Nc2ccc(-c3ccncc3)cc2)ccc1O.Cl.Cl`
Found: 62%
